All figures here come from PubChem BioAssay.

Assign composite z-score to each entry below.
# assay-explanation: binders of probe aHhip on microarray, primary screen, stem cell growth factor project, biochemical, small-molecule microarray, fluorescence 635/667 (AID 1087);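 further: score merges spot fluorescence at 667nm with spot signal to noise ratio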
# protocol-conditions: higher = more signal
One number for each entry.

Go through the list and state composite z-score for each entry.
1. NC(=O)N1C(=O)C2C(C1=O)C1C=C(c3ccc(CO)cc3)C2C(C2CC2)N1Cc1cc2c(cc1Br)OCO2 (centres undefined)
2. CC(C)[Si](C#C[Si](C(C)C)(C(C)C)C(C)C)(O[C@H](C)c1cn([C@H](C)c2ccccc2)nn1)C(C)C

Reply:
1: -0.0237; 2: -0.132

Go through the list and state composite z-score for each entry.
1. C#CCOc1ccc(C[C@H]2C(=O)O[C@H](Cc3ccccc3)[C@H](/C=C/C3CC3)N2CC#C)cc1
2. C=CC[C@]1(C(=O)N2CCCCC2)COC(c2ccc(OCCCO)cc2)=N1
3. COCCCNC(=O)[C@@]1(C)c2ccccc2C(=O)N(Cc2cc(F)cc(C(F)(F)F)c2)[C@H]1c1ccc(CO)cc1
4. COc1ccc([Si](C)(C)[C@H]2[C@H](CC(=O)N3Cc4ccccc4C[C@H]3CO)O[C@@]3(C(=O)N(Cc4cccc(N5C(=O)COc6ccccc65)c4)c4ccccc43)[C@@H]2C)cc1
5. CO[C@H]1O[C@H](CO)[C@@H](OC(=O)Nc2ccccc2)[C@H](OC(=O)Nc2ccc3c(c2)OCO3)[C@H]1OC(=O)Nc1ccc2c(c1)OCO2

Reply:
1: -0.0074; 2: -0.251; 3: -0.196; 4: 0.0873; 5: -0.175

Go through the list and state composite z-score for each entry.
1. C=CCC(OC(C)=O)[C@@H]1[C@@H](N(Cc2ccc(-c3cccc(C(F)(F)F)c3)o2)C(=O)c2ccc(-c3ccccc3)cc2)c2cc(OCCCO)ccc2N1C(=O)Cc1ccc(OC)cc1 (some centres undefined)
2. COc1ccc(C(=O)Nc2cccc(CN3C(=O)[C@@]4(O[C@@H](CCO)[C@H]([Si](C)(C)c5ccc(OC)cc5)[C@H]4C)c4ccccc43)c2)cc1

Reply:
1. -0.0324
2. -0.216

Go through the list and state composite z-score for each entry.
1. CCCC[C@@H](O)C1=C(C)C[C@H]2C(=O)N(C)C(=O)[C@H]2[C@H]1CO
2. O=C(NCC(F)(F)F)[C@@H]1c2ccccc2C(=O)N(C2Cc3ccccc3C2)[C@H]1c1ccc(CO)cc1
3. CO[C@H]1O[C@H](CO)[C@@H](OC(=O)CCc2ccccc2)[C@@H]2OC(=O)[C@H](Cc3ccccc3)C/C=C/C[C@@H](Cc3ccccc3)C(=O)O[C@@H]12
4. COCCOC(=O)N1C(=O)[C@@]2(c3ccccc31)[C@H](C(=O)Nc1nc3ccccc3s1)[C@H]1C(=O)O[C@H](c3ccccc3)[C@H](c3ccccc3)N1[C@@H]2c1ccc(O)cc1

Reply:
1: -0.318; 2: -0.353; 3: -0.337; 4: 0.0302

Task item: Provide composite z-score value for the following compound: CC(C)CNC(=O)[C@@H]1c2ccccc2C(=O)N(Cc2ccc(OC(F)(F)F)cc2)[C@H]1c1ccc(CO)cc1
Reply: -0.206
